Can you tell me growth inhibition for the items I'm about to list?
experiment: NCI Yeast Anticancer Drug Screen. Data for the bub3 strain (AID 167); details: S. cerevisiae bub3 mutant strain, at 50.0 µM, stronger effect = higher value
The panel holds about 79,000 compounds, 15% with a hit somewhere; the sample as a whole holds those more often.
One number for each entry, in %.

The following compounds have reported results that may help.
>>> result_number("O=C1NC(=O)C2(CCCC2=Nc2ccc(Br)cc2)C2C=CN(Cc3ccccc3)C=C12 (stereo unspecified)")
3.65
>>> result_number("CC/C(=N/NC(=O)c1ccccc1)c1ccccc1")
8.5
>>> result_number("COc1ccc(/C=C/C(=O)c2ccc(Cl)s2)cc1")
20.4
>>> result_number("CC(=O)Nc1ccc(C(=O)NN2C(=O)C(Cl)C2c2ccccc2O)cc1 (stereo unspecified)")
-38.1
>>> result_number("O=C[C@H](O)CO")
8.8
>>> result_number("COc1ccc2[nH]c(Br)c(CCNC(C)=O)c2c1")
-4.55
>>> result_number("C[C@@H]1OC(=O)N2CCCC(=C3SCCCS3)C12 (stereo partly specified)")
2.7
>>> result_number("CC(C)N1CN(C(C(=O)N[C@@H]2C(=O)N3C2SC(C)(C)C3C(=O)O)c2ccccc2)CSC1=S (stereo partly specified)")
-9.85

Give me growth inhibition for each of these compounds, listed below.
1. O=C(O)c1cc(-c2ccccc2Cl)nc2ccccc12
2. CCO/C=C1/N=C(Cc2ccccc2)OC1=O
3. C=C(C)C1Cc2cc(C(C)=O)ccc2O1 (stereo unspecified)
4. O=C(NCCCl)NCC1CCCCO1 (stereo unspecified)
5. OCc1ccc(CO)cc1
6. CN(C)C1CS(=O)(=O)OC2=C1CCSc1ccccc12 (stereo unspecified)
7. CC(=O)CC(=O)CCCCCCCCCCCC(=O)CC(C)=O
8. CC(=O)c1cccc(C)n1

Solution:
1. 19.8
2. 3.65
3. -4
4. -3.9
5. 8.65
6. -5.65
7. 13.5
8. 10.9

Each of the following entries comes with a recorded value; kindly state growth inhibition for each.
1. CC(=O)OC(C(=O)N1CC1)C(OC(C)=O)C(OC(C)=O)C(OC(C)=O)C(=O)N1CC1 (stereo unspecified)
2. Cn1c2c(c(=O)n(C)c1=O)CCC(=O)N2
3. CC(=O)OCC(=O)[C@@]1(O)CC[C@H]2[C@@H]3C[C@@H](C)[C@@]4(O)CC5(CC[C@]4(C)[C@H]3[C@@H](O)C[C@@]21C)OCC(C)(C)CO5
4. c1ccc(-c2cc[c]([Sn]([c]3ccccc3)([c]3ccccc3)[c]3ccccc3)cc2)cc1
5. C=CCNC(=O)CCCCCCC/C=C\CCCCCCCC
6. O=C(CCC(=O)Nc1cc(Cl)ccc1Cl)CC(=O)c1ccc([N+](=O)[O-])cc1
7. CCOc1ccc2ccc3ccccc3c2c1NC(C)=O

Solution:
28.6
-2.4
-6.2
99
-2.85
-2
3.6

Could you report growth inhibition for every entry in the following list?
1. O=c1ccn(C2OC(CF)C(O)C2O)c(=O)[nH]1 (stereo unspecified)
2. CCOCC(=O)O

Solution:
0.7
39.2

Problem: Input `CC(C)N(C(=O)c1ncccc1C(=O)c1ccccn1)C(C)C` , output reported growth inhibition.
Solution: -5.85

----------
assay: NCI Yeast Anticancer Drug Screen. Data for the bub3 strain (AID 167); conditions: S. cerevisiae bub3 mutant strain, at 50.0 µM, stronger effect = higher value
Compounds without any hit were thinned out: in the full panel of roughly 79,000, 15% have a hit.
property_measured: growth inhibition (%)
Give bare numbers, in %.

In the examples that follow, each entry is paired with its recorded growth inhibition.
>>> result_number("Cc1ccc2c(c1)nc1n2C(c2c(F)cccc2F)SC1 (configuration not stated)")
29.3
>>> result_number("CCOC(=O)c1sc(N)nc1O")
6.25
>>> result_number("C=CC(C)c1cccc(C=O)c1O (configuration not stated)")
17.8

I'm hoping you can list growth inhibition for every molecule here, please.
1. CCOC(CN(C)C(=S)Nc1cccc2ccccc12)OCC
2. CC1(C)C=C(N2CCCCC2)C(=O)c2ccccc21
3. C/C(=N\N=C(\Cc1ccccc1)c1ccccc1)c1ccccc1
4. C/C(CCn1[nH]c(=O)ccc1=O)=N\O

Solution:
1. -6.9
2. -9.1
3. -1.65
4. -24.6
